The reported numbers originate from patent US20240272170A1.

# tested-target: T1, RL peptide (Octet assay of PS621 variants)
# T1 construct: RXKLDEESILKQK with X = L
# T1 peptide: RLKLDEESILKQK
# run-description: Octet (BLI), 30 C
Octet response strictly less than 10 = label 1. Otherwise label 0.

Answered examples (2):
PS1119 (designed binder, Variant of PS621) MHSKFSHAGRICGAKFKVGEPIYRCKECSFDDTCVLCVNCFNPKDHTGHHVYTTICKEFNNGICDCGDKEAWNHTLFCKAEEG; label 1
PS1113 (designed binder, Variant of PS621) MHSKFSHAGRICGAKFKVGEPIYRCKECSFDDTCVLCVNCFNPKDHTGHHVYTTICTEFNNGICDCGDKEAWNKTLFCKAEEG; label 1

Exam item: In the record for PS1104 (designed binder, Variant of PS621) MHSKFSHAGRICGAKFKVGEPIYRCKECSFDDTCVLCVNCFNPKDHRGHHVYTTICTEFNNGICDCGDKEAWNHTLFCKAEEG , is Octet response less than 10?
Marked response: label 0

Exam item: Here's an entry: PS1118 (designed binder, Variant of PS621) MHSKFSHAGRICGAKFKVGEPIYRCKECSFDDTCVLCVNCFNPKDHTGHHVYTTICTKFNNGICDCGDKEAWNHTLFCKAEEG . Is its Octet response below 10?
Marked response: label 0

Exam item: Item PS1109 (designed binder, Variant of PS621) MHSKFSHAGRICGAKFKVGEPIYRCKECSFDDTCVLCVNCFNPKDHTGHHVYTTICTEFNKGICDCGDKEAWNHTLFCKAEEG : Octet response beneath 10, strictly?
Marked response: label 0
